# PROTOCOL NOTES: yeast display, Sf9 membrane polyspecificity reagent, FACS + sequencing; frameworks hold sequencing errors
ASSAY METRIC: polyreactivity (PSR sort gate)

QVQLVESGGGLVQAGGSLRLSCAASGRTFAPYAMGWYRQAPGKERELVAAISWSGGSTYYADSVKGRFTISRDNAKNTVYLQMNSLKPEDTAVYYCAADGGQTEFDYWGQGTQVTVSS ... high polyreactivity
QVQLVESGGGLVQAGGSLRLSCAASGSIFADYTMGCYRQAPGKERELVAAITGGGGRTYYADSVKGRFTISRDNAKNTVYLQMNSLKPEDTAVYYCAADFHDDHTSFDYWGQGTQVTVSS ... low polyreactivity
QVQLVESGGGLVQAGGSLRLSCAASGNIFDTYVMGWYRQAPGKERELVAAITSDGGTYYADSVKGRFTIARDNAKNTVYLQMNSLKPEDTAVYYCAADTYYYPIQDYWGQGTQVTVSS ... low polyreactivity
QVQLVESGGGLVQAGGSLRLSCAASGRIIAVNAKGWYRQAPGKERELVAAINGGGSTNYADSVKGRFTISRDNAKNTVYLQMNSLKPEDTAVYYCAADVGWRSQTRGYYWGQGTQVTVSS ... high polyreactivity

Let's switch to this sequence now.
# input So what does the record say about polyreactivity (PSR sort gate) for QVQLGESGAGLVQAGGSLRLSCAASGRTLRKYAMGLYTQAPGKERELVAAITTSGGSKYYADSVKGRFTISRDNAKNTVYLPMNSLKPEDTAVYYCAKCGYSGYHSSYDYWGQGTQVTVSS ?
# output high polyreactivity

----------
# PROTOCOL NOTES: yeast display, Sf9 membrane polyspecificity reagent, FACS + sequencing; frameworks hold sequencing errors
ASSAY METRIC: polyreactivity (PSR sort gate)

QVQLVESGGGLVQAGGSLRLSCAASGSTFEVYTMGWYRQAPGKARELVADITWSGGNTYYADSVKGRYTISRDNAKNTVYLQMNSLKPEDTAVYYCAVDGGEFSSYGYWGQGTQVTVSS ... low polyreactivity
QVQLVESGGGLVQAGGSLRLSCAASGRIFARYAMGWYRQAPGKERELVAAISFRGGSTYYADSVKGRFTISRDNAKNTVYLQMNSQKPEDTAVYYCNGRYGRGGYDYWGQGTQVTVSS ... high polyreactivity
QVQLVESGGGLVQAGGSLRLSCAASGFTFARYAMGWYRQAPGKERELVAAITSGSSTYYADSVKGRFTISRDNAKNTVYLQMNSLKPEDTAVYYCAARSFLQSYYYWGQGTQVTVSS ... high polyreactivity
QVQIVESGGGLVQAGGSLSLTCAASGSIITSNDMGWYRQAPGKERELVAAISKSGGRTYYAYSVKGRFTISRENEKNTDYLQMNCLKQEYTAVYYCHAGIYGYGYNPSYDYWGQGTQVTLSS ... high polyreactivity

# input Which measured polyreactivity (PSR sort gate) value corresponds to QVQLVESGGGLVQAGGSLRLSCAAYGSIFGSNAIGCYIQAPGKERELVAAISSGSTYYADTVKGRFTISRDNAKNTVYLQMNSLKPEDNAVYYCNARSLLYEFDYWGQGTQVTVSS ?
# output low polyreactivity

----------
# PROTOCOL NOTES: yeast display, Sf9 membrane polyspecificity reagent, FACS + sequencing; frameworks hold sequencing errors
ASSAY METRIC: polyreactivity (PSR sort gate)

QVQLVESGGGLVQAGGSLRLSCAASGSIYAINVMGWYRQAPGKERDFDAAISVRSGSTYYADSVKGRITISRDNAKNTVYLQMNSLKPEDTAVIYCAARTSRFWRGGGLDYWGQGTQVTGSS ... high polyreactivity
QVQLQESGGGLVQAGGSLRLSCAASSNNSTLDVKGWYRQAPGKEREFVASIGSGGITNYADSVKGRFTISRDNAKNTVYLQMNSLKPEDTAVYYCAVLNQAYTDLIYWGQGTQVTVSS ... high polyreactivity
